tested on: c-myc i-motif DNA; assay: I-motif DNA UV melting (thermal stability); format: binding, human; conditions: c-myc i-motif, 1 : 1 ratio; ΔTm = Tm (DNA-flavone) − Tm (DNA)
Listed here are compounds together with their documented ΔTm.
Just the number in °C, nothing appended.

Ask | Entry "Oc1cc(O)c2c(=S)cc(-c3ccc(Cl)cc3)oc2c1" : reported ΔTm = ?
Reply | 2

Ask | Entry "O=c1cc(-c2ccc(Cl)cc2)oc2cc(O)cc(O)c12" : reported ΔTm = ?
Reply | 1

Ask | Entry "Cc1ccc(C(C)C)cc1.[Cl-].[O-]c1cc(O)cc2oc(-c3ccc(Cl)cc3)cc(=S)c12.[Ru+2]" : reported ΔTm = ?
Reply | −1

Shift focus to the following entry.
Ask | Entry "Cc1ccc(C(C)C)cc1.O=c1cc(-c2ccc(Cl)cc2)oc2cc(O)cc([O-])c12.[Cl-].[Ru+2]" : reported ΔTm = ?
Reply | 3
